B1: TPR 5TU (parent)
chain: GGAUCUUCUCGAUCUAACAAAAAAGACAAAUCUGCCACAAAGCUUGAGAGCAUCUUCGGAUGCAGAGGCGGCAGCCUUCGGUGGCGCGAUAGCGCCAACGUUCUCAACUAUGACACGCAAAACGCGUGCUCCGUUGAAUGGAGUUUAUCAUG

Variants of: B1
Assay: polymerase ribozyme fitness, log enrichment relative to wild type (log ratio); higher = more active; in vitro selection for triplet polymerase activity
Fewer inactive variants are shown than the library holds.
Quantity: polymerase ribozyme fitness (log ratio)
Format: numeric value only, no unit, no commentary.

Sample answers from the record:
[Q] Please give the documented polymerase ribozyme fitness (log ratio) of A19U A22C C93U U145A
[A] -1.22

[Q] Please give the documented polymerase ribozyme fitness (log ratio) of G128A G136A
[A] -4.18

[Q] Please give the documented polymerase ribozyme fitness (log ratio) of A23U C57U
[A] -3.64

[Q] Please give the documented polymerase ribozyme fitness (log ratio) of A60G C116A
[A] 1.26

[Q] Please give the documented polymerase ribozyme fitness (log ratio) of A40U C95U
[A] -1.07

Others:
[Q] Please give the documented polymerase ribozyme fitness (log ratio) of A37G A60G C87U
[A] -1.88

[Q] Please give the documented polymerase ribozyme fitness (log ratio) of C118U
[A] -0.256
